Every entry's value here was drawn from ChEMBL document CHEMBL4425149.

Documented logD across a set of compounds
# EXPERIMENT DESCRIPTION: Octanol-aqueous buffer distribution coefficient, log D of the compound at pH 7.4
# Assay type: physicochemical
Write the number on its own, no unit after it.

Suppose we examine the compound `CCn1cc(-c2[nH]c3c(C#N)cnn3c(=O)c2C(C)C)cn1` ; what logD value has been reported?
0.66

Here is the next compound: `CC(C)c1c(-c2cnn(-c3ccccc3)c2)[nH]c2c(C#N)cnn2c1=O`
1.8

Here is the next compound: `CC(C)c1c(-c2cnn(C(C)(C)C)c2)[nH]c2c(C#N)cnn2c1=O`
1.4

----------
# EXPERIMENT DESCRIPTION: Protein binding in mouse plasma
# Type: ADME, cell-free
# RECORDED CONDITIONS: read-out: PPB (converted)
MEASUREMENT KIND: fraction unbound
Write the number on its own, no unit after it.

Suppose we examine the molecule `CC(C)c1c(-c2cnn(C(C)(C)C)c2)[nH]c2c(C#N)cnn2c1=O` ; what fraction unbound value has been reported?
0.025
